System: M14 melanoma
Assay details: NCI-60 one-dose screen, 48 h (100 = growth as untreated, 0 = no growth, -100 = all killed)
Assay context: 10 µM unless noted
The panel holds about 83,000 compounds, 20% with a hit somewhere; the sample as a whole holds those more often.
Measurement kind: growth (%)
# number only, unit % dropped from output

- Molecule: "Cc1ccc(Nc2nc(N)c3ccccc3n2)cc1Cl"
  Test system: "M14 melanoma"
  growth [%]: 80.3
- Molecule: "Oc1ccc(-c2nc(-c3ccc4oc5ccc(-c6[nH]c(-c7ccc(O)cc7)nc6-c6ccccc6)cc5c4c3)c(-c3ccccc3)[nH]2)cc1"
  Test system: "M14 melanoma"
  growth [%]: 65.5
- Molecule: "CCOC(=O)c1ccc2[nH]c(-c3ccccc3)cc(=O)c2c1"
  Test system: "M14 melanoma"
  growth [%]: 98.9

Query: // growth lookup, key: CCN1C(=O)N(CC)C2Nn3c(s/c(=C\c4ccccc4F)c3=O)=NC21 (centres undefined)
Reply: 23.3

Query: Also need `O=C1NC(=O)C(=Cc2cn(Cc3cn(Cc4ccc(Cl)cc4Cl)nn3)c3ccccc23)C(=O)N1` , thanks.
Reply: 96.8

Query: Also need `O=C(Nc1ccc(Cl)cc1)N1CCN(c2ccc3nncn3n2)CC1` , thanks.
Reply: -87.1

----------
Test system: A498 renal
Assay details: NCI-60 one-dose screen, 48 h
Assay context: 10 µM unless noted
This is part of a sample that, as a whole, favours compounds with a hit. Of some 83,000 tested, about 20% had one in any assay. Activity calls are given as the source filed them. Rule for the calls: active = growth percent below 10; inactive = the rest.
Choose one outcome from this list and give only that: 1.0 (active), 0.0 (inactive)

Below are worked cases with known answers.
- Compound: "COc1cc(C(=O)Nc2ccc(-c3nc4ccccc4[nH]3)cc2)cc(OC)c1OC"
  Test system: "A498 renal"
  Assigned label: 0.0
- Compound: "c1ccc(-c2ccc(-c3nc4ccccc4[nH]3)cc2)cc1"
  Test system: "A498 renal"
  Assigned label: 0.0
- Compound: "CC1CCCCN1CCCNC(=O)c1ccc2c(c1)sc1nc(-c3ccc(F)cc3)cn12 (stereo not given)"
  Test system: "A498 renal"
  Assigned label: 0.0
- Compound: "COc1ccc(-c2nsc3c2NC(=O)CC3c2ccsc2)cc1 (stereo not given)"
  Test system: "A498 renal"
  Assigned label: 1.0

Now look at this entry.
Query: Recorded test outcome, item `Cc1c(-c2noc(-c3ccc([N+](=O)[O-])cc3)n2)no[n+]1[O-]`
Reply: 0.0

----------
System: SK-MEL-2 melanoma
Assay details: NCI-60 one-dose screen, 48 h (100 = growth as untreated, 0 = no growth, -100 = all killed)
Assay context: 10 µM unless noted
Protocol: Growth inhibition of the SK-MEL-2 human tumor cell line is measured as a screen for anti-cancer activity. Cells are grown in 96 well plates and exposed to the test compound for 48 hours. Compounds are tested at a single concentration, which is 10^-5 M for most compounds. The reported endpoint is percent growth (GI% or GIPRCNT), where numbers from 0 - 100% represent growth inhibition, and numbers from -100% - 0 represent cell death. For example, a value of 40 represents 60% growth inhibition. […]
About 83,000 compounds went through this panel and 20% of them were active in at least one assay; those are over-represented in the sample as a whole.
Measurement kind: growth (%)
# number only, unit % dropped from output

- Molecule: "COc1ccc(-c2nc(-c3ccccn3)c(-c3ccccn3)n2CC(C)C)cc1OC1CCCC1"
  Scale unit: "%"
  Reading: -4.88
- Molecule: "COc1ccc(C(O)(CCC(C)C)C(CN2CCOCC2)c2ccc(Cl)cc2)cc1 (configuration not stated)"
  Scale unit: "%"
  Reading: 2.58

Query: // growth lookup, key: `O=C(Nc1ccc(N2CCNCC2)cn1)c1[nH]ncc1Nc1ncnc2sccc12`
Reply: 85.7

Query: Also need `CCOC(=O)c1ccc2[nH]c(-c3ccccc3)cc(=O)c2c1` , thanks.
Reply: 105

Query: Also need `NCCOc1ncccc1/C=C1\c2ccccc2-c2ccc(F)cc21` , thanks.
Reply: 112

Query: Also need `O=C(Nc1ccc(Cl)cc1F)c1cc(F)ccc1O` , thanks.
Reply: -29.8

Query: Also need `O=NN(Cc1cccnc1)C(=O)NC1CCCCC1` , thanks.
Reply: 119
